The following molecules are shown together with reported Pre-emergence herbicidal effect ALOMY values.
Test system: Alopecurus myosuroides
Measurement Notes: Pre-emergence herbicidal effect
Assay type: in vivo
Setup Conditions: Dosage 320 g/ha, visual scoring after 3 weeks vs untreated controls, 100% = plants have died

Cpd Smiles	Test System	Endpoint Unit	Pre-emergence herbicidal effect ALOMY
Cc1nc(N[C@@H]2CCOc3c(F)cccc32)nc(N)c1C#N	Alopecurus myosuroides	%	100
Cc1ccc2c(c1)[C@H](Nc1nc(C)c(I)c(N)n1)[C@@H](C)C2	Alopecurus myosuroides	%	80
CCc1nc(N[C@@H]2CCc3ccccc32)nc(N)c1C#N	Alopecurus myosuroides	%	80
CCc1nc(N[C@H]2c3cc(C)ccc3C[C@@H]2C)nc(N)c1C#N	Alopecurus myosuroides	%	100
N#Cc1cnc(N[C@@H]2CCCc3ccccc32)nc1N	Alopecurus myosuroides	%	100
